# Tested On: T1, DGI-2 polypeptide (UniProt Q15004 1-111, limits assumed)
# T1 construct: Vector-derived residues or tag of pIVEX2.3 are not described for this construct; also called KIAA0101
# T1 sequence (looked up): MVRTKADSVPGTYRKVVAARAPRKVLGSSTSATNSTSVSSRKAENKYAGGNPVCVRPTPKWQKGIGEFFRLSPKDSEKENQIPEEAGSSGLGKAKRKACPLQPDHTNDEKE
# Method Description: phage ELISA, 405 nm; DGI-2 signal over LDH signal
Reported Property: DGI-2/LDH (OD) (ratio)

# Binder, Observed Value
data = [
    ("DGI-2-40F-3-D12 (not shown: phage gene III coat protein (pCANTAB5E)) peptide: QGSAHVVRPPGVYDVPWKVGMFFHPQNWPNSWGRAYFRSGAAAGAPVPYPDPLEPRP", 2.5),
    ("DGI-2-40F-3-B122 (not shown: phage gene III coat protein (pCANTAB5E)) peptide: HSGNRQSGSRRTHLLNIFCSSDTFVFPGWSAYLSRVCPGDAAAGAPVPYPDPLEPRP", 2.2),
    ("DGI-2-40F-3-C52 (not shown: phage gene III coat protein (pCANTAB5E)) peptide: GLLFTSSPYQCFWVHCTLTMSPLSVLGDLSSTIGRMRASRAAAGAPVPYPDPLEPRP", 1.3),
    ("FSSVLGLLDRRGVPVVVGEDAAAGAPVPYPDPLEPRP (not shown: phage gene III coat protein (pCANTAB5E)) [DGI-2-20F-3-C3]", 1.1),
    ("MSTLQGPGHLFQMLRRASLGAAAGAPVPYPDPLEPRP (not shown: phage gene III coat protein (pCANTAB5E)) [DGI-2-20R-4-H12]", 2.8),
    ("FSSTGILLRSGRATAVGHVTAAAGAPVPYPDPLEPRP (not shown: phage gene III coat protein (pCANTAB5E)) [DGI-2-20F-3-A6]", 1.4),
    ("SWRLWVSGELQGDRRKGLRGAAAGAPVPYPDPLEPRP (not shown: phage gene III coat protein (pCANTAB5E)) [DGI-2-20R-3-B7]", 3),
    ("TSCQVMFLAGQHLLSRVPRLAAAGAPVPYPDPLEPRP (not shown: phage gene III coat protein (pCANTAB5E)) [DGL-2-20R-3-B6]", 2.7),
    ("DGL-2-40F-3-D10 (not shown: phage gene III coat protein (pCANTAB5E)) peptide: TLVTEGNKGSVKAHKDIGVWQLWWDWLSVTDSETVGRVSHAAAGAPVPYPDPLEPRP", 1.7),
    ("DGI-2-40F-3-B11 (not shown: phage gene III coat protein (pCANTAB5E)) peptide: LAPMFLQNQVRTWAASRRPLPAGPSNARCETGSLSPWVPCAAAGAPVPYPDPLEPRP", 2),
    ("DGI-2-40F-3-D3 (not shown: phage gene III coat protein (pCANTAB5E)) peptide: VQFAMTLSSRLWQHARHPLTDDAPPTVSFGTRRETLAGKAAAAGAPVPYPDPLEPRP", 1.1),
    ("LHFGSVMGWRPPGSLWSRPFGQVHPRSWSGSAAAGAPVPYPDPLEPRP (not shown: phage gene III coat protein (pCANTAB5E)) [DGI-2-40F-3-D11]", 2.9),
]
